Answer each item with its documented melting point.

The compound identified as Cn1cncc1-c1nc(-c2cccc(Cl)c2)c2cc(C(O)(c3ccc(Cl)cc3)c3cncn3C)ccc2n1 (stereo not shown) [Example B6] registered its melting point at 160 °C

The measured melting point associated with Cn1cncc1C(O)(c1ccc(Cl)cc1)c1ccc2nc(N)nc(-c3cccc(Cl)c3)c2c1 (stereo not shown) [Example B19] reads 235 °C

melting point for CSc1nnc(C(O)(c2ccc(Cl)cc2)c2ccc3nc(C)cc(-c4cccc(Cl)c4)c3c2)n1C (stereo not shown) [Example B14b] is 142 °C

The recorded melting point for entry Cn1cncc1C(O)(c1ccc(Cl)cc1)c1ccc2nc(/C=C/C(N)=O)cc(-c3cccc(Cl)c3)c2c1 (racemic) [Example B11] equals 80 °C

###

# note: boundary value 200 °C maps to No; melting point below it maps to Yes

Is the reported melting point for CSc1nnc(C(N)(c2ccc(Cl)cc2)c2ccc3nc(C)cc(-c4cccc(Cl)c4)c3c2)n1C (stereo not shown) [Example B16b] strictly below 200 °C?
Yes

Quick check: melting point of Cc1cc(-c2cccc(Cl)c2)c2cc(C(O)(c3ccc(Cl)cc3)c3nncn3C)ccc2n1.O (stereo not shown) (hydrate or solvate) under 200 °C?
Yes

Strictly below 200 °C in melting point? Cn1cncc1C(O)(c1ccc(Cl)cc1)c1ccc2nc(-c3cccnc3)nc(-c3cccc(Cl)c3)c2c1 (stereo not shown)
Yes

Strictly below 200 °C: is that where melting point of Cc1cc(-c2cccc(Cl)c2)c2cc(C(O)(c3ccc(Cl)cc3)c3nnc(S)n3C)ccc2n1 (stereo not shown) [Example B14a] sits?
Yes

Strictly below 200 °C in melting point? Cn1cncc1C(O)(c1ccc(Cl)cc1)c1ccc2nc(C#Cc3ccccc3)cc(-c3cccc(Cl)c3)c2c1 (stereo not shown)
Yes

Here's an entry: Cc1nc(-c2cccc(Cl)c2)c2cc(C(O)(c3ccc(Cl)cc3)c3cncn3C)ccc2n1 (stereo not shown) . Is its melting point below 200 °C?
No

Values from patent US7053105B2
